SUBJECT OF TEST: NEK7 (Homo sapiens (Human), UniProt Q8TDX7+Q96SW2)
Sequence (Q8TDX7 whole entry): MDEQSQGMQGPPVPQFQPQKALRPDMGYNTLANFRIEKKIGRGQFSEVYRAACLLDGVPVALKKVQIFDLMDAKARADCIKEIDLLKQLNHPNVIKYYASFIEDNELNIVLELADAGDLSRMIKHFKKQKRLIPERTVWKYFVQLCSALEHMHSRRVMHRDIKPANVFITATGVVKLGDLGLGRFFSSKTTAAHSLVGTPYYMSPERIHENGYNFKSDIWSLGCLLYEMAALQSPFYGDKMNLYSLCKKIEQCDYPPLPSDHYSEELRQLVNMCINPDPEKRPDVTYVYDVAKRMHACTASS
Sequence (Q96SW2 whole entry): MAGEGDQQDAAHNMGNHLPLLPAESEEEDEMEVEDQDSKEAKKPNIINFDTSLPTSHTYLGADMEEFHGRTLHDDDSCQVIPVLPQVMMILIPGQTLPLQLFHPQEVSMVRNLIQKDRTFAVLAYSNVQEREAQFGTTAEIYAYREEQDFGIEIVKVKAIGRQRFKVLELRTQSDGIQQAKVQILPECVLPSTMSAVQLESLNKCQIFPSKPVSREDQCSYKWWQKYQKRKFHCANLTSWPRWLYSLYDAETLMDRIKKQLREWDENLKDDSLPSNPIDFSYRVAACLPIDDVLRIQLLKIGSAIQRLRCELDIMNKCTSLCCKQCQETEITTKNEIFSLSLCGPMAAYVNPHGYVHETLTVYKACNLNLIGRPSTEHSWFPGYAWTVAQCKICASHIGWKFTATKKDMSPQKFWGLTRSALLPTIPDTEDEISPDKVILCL
Sequence (Q16531 2-1140 partner): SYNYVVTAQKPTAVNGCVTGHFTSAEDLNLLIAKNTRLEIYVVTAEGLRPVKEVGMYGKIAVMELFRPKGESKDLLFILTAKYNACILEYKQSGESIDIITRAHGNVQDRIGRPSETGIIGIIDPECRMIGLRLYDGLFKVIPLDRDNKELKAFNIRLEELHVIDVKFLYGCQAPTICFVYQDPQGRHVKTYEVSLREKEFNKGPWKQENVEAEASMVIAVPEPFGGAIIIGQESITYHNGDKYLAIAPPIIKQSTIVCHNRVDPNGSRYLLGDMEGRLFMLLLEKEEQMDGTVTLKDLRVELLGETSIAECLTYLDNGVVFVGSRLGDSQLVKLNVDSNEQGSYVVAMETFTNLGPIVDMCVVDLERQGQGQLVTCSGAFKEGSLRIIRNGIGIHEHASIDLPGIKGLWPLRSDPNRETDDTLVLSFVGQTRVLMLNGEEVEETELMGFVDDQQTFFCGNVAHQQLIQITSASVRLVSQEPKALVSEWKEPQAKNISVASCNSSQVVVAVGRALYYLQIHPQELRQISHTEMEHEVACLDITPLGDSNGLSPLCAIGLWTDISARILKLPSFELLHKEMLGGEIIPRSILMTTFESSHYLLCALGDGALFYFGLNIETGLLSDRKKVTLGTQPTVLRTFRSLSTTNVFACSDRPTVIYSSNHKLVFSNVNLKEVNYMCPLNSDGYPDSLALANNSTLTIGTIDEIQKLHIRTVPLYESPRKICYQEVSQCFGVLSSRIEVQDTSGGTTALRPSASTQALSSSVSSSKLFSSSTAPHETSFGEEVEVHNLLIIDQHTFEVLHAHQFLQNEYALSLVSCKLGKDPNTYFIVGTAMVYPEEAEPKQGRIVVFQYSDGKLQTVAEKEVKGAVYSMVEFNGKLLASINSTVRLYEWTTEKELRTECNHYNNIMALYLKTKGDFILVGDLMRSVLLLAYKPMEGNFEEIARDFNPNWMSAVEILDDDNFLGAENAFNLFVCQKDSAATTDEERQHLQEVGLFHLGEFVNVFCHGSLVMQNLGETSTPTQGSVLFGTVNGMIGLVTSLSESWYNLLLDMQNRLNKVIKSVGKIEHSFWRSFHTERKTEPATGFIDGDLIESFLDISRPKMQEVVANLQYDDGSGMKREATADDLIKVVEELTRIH
PROTOCOL DETAILS: NEK7 NanoBiT degradation assay in Cal51 NEK7 NanoBiT cell line
Type: cell-based
CONDITIONS USED: Cal51 NEK7 NanoBiT cells, 24 hours; read-out: NEK7 NanoBiT DC50

MOLECULE: CC(C)(C(=O)NCc1ccc(C2CCC(=O)NC2=O)c(Cl)c1)c1ccc(S(N)(=O)=O)cc1 (centres unmarked) [Compound 56]
RESULT UNITS: nM
DC50: 244
//
MOLECULE: CC(C)(C(=O)NCc1cc(Cl)c(C2CCC(=O)NC2=O)c(Cl)c1)c1cc2ncccc2cn1 (centres unmarked) [Compound 2]
RESULT UNITS: nM
DC50: 3
//
MOLECULE: CC(C)(C(=O)NCc1cc(Cl)c(C2CCC(=O)NC2=O)c(Cl)c1)c1ccncc1 (centres unmarked) [Compound 108]
RESULT UNITS: nM
DC50: 3
//
MOLECULE: CC(C)(C(=O)NCc1ccc(C2CCC(=O)NC2=O)c(Br)c1)c1ccc(F)cc1 (centres unmarked) [Compound 64]
RESULT UNITS: nM
DC50: 43
//
MOLECULE: CC(C)(C(=O)NCc1cc(F)c(C2CCC(=O)NC2=O)c(Cl)c1)c1ccc(OC(F)F)nc1 (centres unmarked) [Compound 267]
RESULT UNITS: nM
DC50: 3
//
MOLECULE: CC(C)(C(=O)NCc1cc(Cl)c(C2CCC(=O)NC2=O)c(Cl)c1)c1ccc2c(c1)CNS2(=O)=O (centres unmarked) [Compound 40]
RESULT UNITS: nM
DC50: 8
//
MOLECULE: COCc1cnc(C(C)(C)C(=O)NCc2cc(Cl)c(C3CCC(=O)NC3=O)c(Cl)c2)nc1 (centres unmarked) [Compound 183]
RESULT UNITS: nM
DC50: 56
//
MOLECULE: Cc1nc(CNC(=O)C(C)(C)c2ccccc2)cc(Cl)c1C1CCC(=O)NC1=O (centres unmarked) [Compound 239]
RESULT UNITS: nM
DC50: 909
